Biological target: Melanin-concentrating hormone receptor 1 (Rattus norvegicus, UniProt P97639)
Sequence (P97639 whole entry): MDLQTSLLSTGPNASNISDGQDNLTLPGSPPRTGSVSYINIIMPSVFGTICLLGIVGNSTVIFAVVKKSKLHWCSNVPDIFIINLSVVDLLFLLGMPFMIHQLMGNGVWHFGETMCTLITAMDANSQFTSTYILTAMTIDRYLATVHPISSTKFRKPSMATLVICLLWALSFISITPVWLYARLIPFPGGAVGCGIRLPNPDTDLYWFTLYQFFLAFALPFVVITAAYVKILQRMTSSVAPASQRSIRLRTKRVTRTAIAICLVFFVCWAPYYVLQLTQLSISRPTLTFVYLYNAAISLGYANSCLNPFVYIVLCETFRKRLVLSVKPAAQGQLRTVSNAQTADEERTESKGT
Assay: Displacement of [125I][Phe13,Tyr19]-MCH from rat MCHR1 by scintillation counting analysis
measurementName: pKi
Answers are plain numbers, as −log10 of the molar value.

COc1cc(-n2cnn3cc(-c4ncc(Cl)cn4)cc3c2=O)ccc1OCC(C)(C)O	7.82
COc1cc(-n2cnn3cc(-c4ccc(Cl)cn4)cc3c2=O)ccc1OC[C@H](O)C1CC1	7.92
COc1cc(-n2cnn3cc(-c4ccc(Cl)cc4)nc3c2=O)ccc1OCCN1CCCC1	8.59
COc1cc(-n2cnn3cc(-c4ccc(Cl)cc4)cc3c2=O)ccc1OCCN1CCCC1	9.40

Could you tell me pKi for each of these compounds? They are listed below.
1. COc1cc(-n2cnn3cc(-c4ccc(Cl)cc4)cc3c2=O)ccc1OCC(C)(C)O
2. COc1cc(-n2cnn3cc(-c4ncc(Cl)cn4)cc3c2=O)ccc1OCC(O)C1CC1 (configuration not stated)

## Result
8.74
7.82

## Task # return pKi for COc1cc(-n2cnn3cc(-c4ccc(Cl)cc4)cc3c2=O)ccc1OCC1(O)CC(F)(F)C1 , test system: Melanin-concentrating hormone receptor 1 (Rattus norvegicus, UniProt P97639)
## Result 8.42
